Test: NCI Yeast Anticancer Drug Screen. Data for the cln2 rad14 strain (AID 165);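 also: 0% = growth equal to vehicle treated cultures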
Conditions: S. cerevisiae cln2 rad14 strain, at 50.0 µM, active compounds read high
The panel holds about 79,000 compounds, 15% with a hit somewhere; the sample as a whole holds those more often.
Kindly state growth inhibition for each of the entries shown.
Answers are plain numbers, in %.

COc1cc2c(cc1OC)[C@H](C)N1CCc3cc(OC)c(OC)cc3[C@@H]1C2; 14.3

Please state growth inhibition for every compound in the list that follows.
1. CC(=O)OC(C)/C=C\C#N (stereo not drawn)
2. O=C(N/N=C/c1ccccn1)c1ccccc1
3. CCCC/C(=N/O)c1ccccc1
4. NC(=O)C1=CCCC1
5. CCCCOc1cc2c(cc1C(C)c1ccccc1)OCO2 (stereo not drawn)
6. NNC(=S)N/N=C(/C(=O)Nc1cc(Cl)ccc1Cl)C1C(=O)Nc2ccccc2S1=O (stereo not drawn)
7. CN(C)C(=O)c1cccc(C2CCCCC2)c1O

Reply:
1. -2.65
2. 19.1
3. -9.1
4. 10.2
5. 2.8
6. -28.6
7. -81.4

---

Kindly state growth inhibition for each of the entries shown.
Assay: NCI Yeast Anticancer Drug Screen. Data for the bub3 strain (AID 167)
Details: S. cerevisiae bub3 mutant strain, at 50.0 µM, active compounds read high
Procedure: Growth inhibition of yeast strains with defined genetic alterations is measured as a screen for potential anti-cancer activity. Selected strains with alterations in DNA damage repair or cell cycle control were exposed to compounds and growth inhibition was measured relative to vehicle treated controls. The strain used in this assay is bub3
About 79,000 compounds went through this panel and 15% of them were active in at least one assay; those are over-represented in the sample as a whole. Where a SMILES comes first, the peptide text is derived from it. The star is where a group is joined. Cbz = O=C(OCc1ccccc1)*
One number for each entry, in %.

Worked examples follow.
O=C(O)c1ccc(Cl)c2ncccc12; -9.75
O=C(/C=C(/CC(=O)c1ccccc1)C(=O)c1ccccc1)c1ccccc1; -10.5
COc1cc2c(cc1O)C(Cc1ccccc1)N(C)CC2O (stereo not given); -7.55

Please state growth inhibition for every compound in the list that follows.
1. CCCCCC#CC1OC1(C)C (stereo not given)
2. NNc1nnnc2ccccc12
3. CC1=C(C)C2(C)C(C)C2(C)C1C (stereo not given)
4. CCCC1OC(c2ccc(OC)cc2)OCC1CC (stereo not given)
5. CC(=O)C1=C(O)/C(=C/c2ccccc2)NC1=O
6. COc1ccc(/C=C2\N=C(c3ccc(N)cc3)OC2=O)cc1OC
7. CC1(c2ccc(Cl)cc2)NC(=O)N(CC(=O)Nc2ccccc2)C1=O (stereo not given)
8. N#CCCc1c(O)ccc2ccccc12

Reply:
1. 5.95
2. -31.1
3. 35
4. 30.9
5. -13.2
6. 10.3
7. -12.1
8. 10.5

Please state growth inhibition for every compound in the list that follows.
1. CCCCCCCCn1c(N)c(C#N)cnc1=S
2. C=C(C)CN(CC(=C)C)C(C)=O
3. COc1ccc(/C(C#N)=C/c2ccc(N(C)CCC#N)cc2)cc1
4. O=C(C(c1ccccc1)C(F)(F)F)N1CCCC1 (stereo not given)
5. Oc1ccc(C(O)CNCCCCCCNCC(O)c2ccc(O)c(O)c2)cc1O (stereo not given)
6. CCCCc1ccc(O)c(CN(CC)CC)c1

Reply:
[12, -16.3, 15.2, 13.8, -1.45, -6.8]

Please state growth inhibition for every compound in the list that follows.
1. C=C(Br)CNC(=O)Nc1ccc(Cl)c(Cl)c1
2. CC(C)(C(=O)Cc1ccccc1)c1ccccc1
3. CC12CC(=O)NC(=O)N1CCS2 (stereo not given)
4. O=C(Oc1ccccc1)N1CCCSC1=S
5. CC(C)SC(CC(O)C(O)COC(=O)c1ccccc1)SC(C)C (stereo not given)
6. NNC(=S)N/N=C(/C(=O)Nc1cc(Cl)ccc1Cl)C1C(=O)Nc2ccccc2S1=O (stereo not given)
7. Cc1ccc(OCCNCCO)cc1
8. ClC1CC2CC1C1CCCC21 (stereo not given)

Reply:
1. 22.6
2. 0.2
3. -13.7
4. 16.2
5. -4.7
6. -6.6
7. -1.2
8. 4.8

Please state growth inhibition for every compound in the list that follows.
1. Cc1ccc(S(=O)(=O)/C=C/c2ccccc2)cc1
2. O=C1OI(=O)(O)c2ccccc21 (stereo not given)
3. COc1cc2c(cc1OC)C(C(=O)O)C(c1ccccc1)N(C)C2=O (stereo not given)
4. COc1cccc(/C=N/O)c1OC
5. CCCCNc1ccccc1

Reply:
-2.45
5.2
-13.2
-1.85
-6.25

Please state growth inhibition for every compound in the list that follows.
1. CCOC(=O)CCC(NC(=O)OCc1ccccc1)C(=O)NC(CCC(=O)OCC)C(=O)OCC (stereo not given) (Cbz-Glu(OEt)-Glu(OEt)-OEt; configuration not given here)
2. CC12CCC(O)CC1=CCC1C2CCC2(C)C1CCC21SCCS1 (stereo not given)
3. O=C(CSc1c2ccccc2nc2ccccc12)Nc1ccccc1-c1ccccc1NC(=O)CSc1c2ccccc2nc2ccccc12
4. CCOC(=O)c1ccc(-n2nc(C)cc(Cl)c2=O)cc1

Reply:
1: 4.65; 2: 13.8; 3: 19; 4: 20.4

Please state growth inhibition for every compound in the list that follows.
1. CCC(=O)c1ccccc1C#N
2. O=NNc1ccc(SSc2ccc(NN=O)cc2)cc1
3. COC1OCC(OS(C)(=O)=O)C(OS(C)(=O)=O)C1OS(C)(=O)=O (stereo not given)
4. C[C@@H]1C(=O)CC2(O)[C@@]13C[C@@H](OC(=O)[C@@H]3O)[C@@H](C)[C@@]21COC1=O (stereo not given in full)
5. c1ccc(Cn2nnc(-c3ccccc3)n2)cc1
6. CC1(O)C(O)C(O)C1(O)CO (stereo not given) (tested in a mixture with another compound)
7. CN(Cc1ccccc1)C(=O)c1ccc(Cl)cc1

Reply:
1: 0.1; 2: 8.05; 3: -1; 4: -28.1; 5: 32.9; 6: -2.4; 7: 1.25

Please state growth inhibition for every compound in the list that follows.
1. C1=C(N2CCOCC2)CCC(N2CCOCC2)=C1
2. O=C(Cc1nc2ccc(C(=O)c3ccccc3)cc2[nH]c1=O)C(=O)Nc1ccc(Br)cc1
3. Nc1ccc2c(c1)C(=O)c1cc(C(=O)O)ccc1-2

Reply:
1: -8.65; 2: -3.3; 3: 12.8

Sample CCNC(C(=O)O)C1CCCCC1 (stereo not given) ; growth inhibition observed: -0.8

---

Assay: NCI Yeast Anticancer Drug Screen. Data for the mlh1 rad18 strain (AID 175)
Settings: S. cerevisiae mlh1 rad18 strain growth inhibition; at 50.0 µM; active compounds read high
About 79,000 compounds went through this panel and 15% of them were active in at least one assay; those are over-represented in the sample as a whole.
RECORDED_ENDPOINT: growth inhibition (%)
Numbers only, in %.

CCNC(=O)N(Cc1ccccc1)Cc1ccccc1; -20.6

Please state growth inhibition for every compound in the list that follows.
1. O=C(CN1C(=O)c2ccccc2C1=O)Oc1ccccc1
2. OC1COC(C2CCCO2)OC1 (stereo not given)
3. O=[N+]([O-])c1cc(Br)ccc1N1CCCCC1
4. NC(=O)C1=CCCC1

Reply:
1: -5.45; 2: 11.8; 3: -20.8; 4: -3.3

---

Experiment: NCI Yeast Anticancer Drug Screen. Data for the mec2-1 strain (AID 157)
Conditions: S. cerevisiae mec2-1 strain, at 50.0 µM, active compounds read high
About 79,000 compounds went through this panel and 15% of them were active in at least one assay; those are over-represented in the sample as a whole.
Kindly state growth inhibition for each of the entries shown.
Numbers only, in %.

Worked examples follow.
COC(=O)c1cc(C)ncc1C#N; 1.15
CCC1c2ccccc2[C@H]2C(c3ccccc3)=NN(c3ccccc3)[C@H]2N1CC (stereo partly specified); -5.05
CC(=O)Nc1ccccc1C=O; -7.95
O=C1C=C(N2CCCC2)c2ccccc21; -9.25
CCCCCCOC(=O)C[C@H]1C[C@H](C(=O)OCCCCCC)C1(C)C; -15.6
c1ccc(CSc2cnnc3ccccc23)cc1; -10.8
CN1N=C(N)c2cn(C3OC(COP(=O)(O)O)C(O)C3O)c3ncnc1c23 (stereo unspecified); 1.2
COc1ccc(OC)c2nc3c(C(=O)NCCN(C)C)cccc3nc12; -25.5
O=C1C=CC(=O)N1CCCCN1C(=O)C=CC1=O; 3.75
CC1CN(C(=S)Nc2ccccc2)C(C)CN1CCO (stereo unspecified); 1.6

Please state growth inhibition for every compound in the list that follows.
1. CCOCc1cnc(SC)nc1N
2. CS/C(c1ccccc1)=[N+](\[O-])Cc1ccccc1
3. O=C(O)CC(=O)C(C(=O)O)C(CCc1ccccc1)C(C(=O)O)C(=O)CC(=O)O (stereo unspecified)
4. CCc1c(O)c2c([nH]c1=O)SC(C)(C)CC2=NCC(C)C
5. CCOC(=O)NC(=O)c1cn(CCCCCCOC(=O)NCCCCCCNC(=O)OCCCCCCn2cc(C(=O)NC(=O)OCC)c(=O)[nH]c2=O)c(=O)[nH]c1=O
6. N/N=C1/CCCc2nonc21
7. CC1(O)OC(=O)c2ccc3ccccc3c21 (stereo unspecified)
8. CC(=O)c1cc([N+](=O)[O-])c(O)cc1O

Reply:
[7.35, 9, -13.6, -33.5, 14.6, -17.1, -19.9, 2.25]

Please state growth inhibition for every compound in the list that follows.
1. Clc1ccnnc1Cl
2. O=c1c2ccccc2c2nccn2c2ccccc12
3. N#CCCN(CCC#N)c1ccc(CC2C(=O)N(c3cccc(S(=O)(=O)O)c3)N=C2C(=O)O)cc1 (stereo unspecified)
4. CCCC(C)(O)C(C)(C)C (stereo unspecified)
5. COc1ccc(C2OCC(c3ccccc3)O2)cc1 (stereo unspecified)
6. Cc1ccccc1S(=O)(=O)NSc1ccccc1[N+](=O)[O-]
7. CCCn1c(C)nc2c(N)cc(C)cc21

Reply:
1: -30.8; 2: 3; 3: -26.8; 4: 8.65; 5: -7.65; 6: -5.25; 7: -2.9
